Values were extracted from patent US20240270821A1.

- tested target: human glucagon receptor (human) (UniProt P47871)
- Sequence (P47871 26-477): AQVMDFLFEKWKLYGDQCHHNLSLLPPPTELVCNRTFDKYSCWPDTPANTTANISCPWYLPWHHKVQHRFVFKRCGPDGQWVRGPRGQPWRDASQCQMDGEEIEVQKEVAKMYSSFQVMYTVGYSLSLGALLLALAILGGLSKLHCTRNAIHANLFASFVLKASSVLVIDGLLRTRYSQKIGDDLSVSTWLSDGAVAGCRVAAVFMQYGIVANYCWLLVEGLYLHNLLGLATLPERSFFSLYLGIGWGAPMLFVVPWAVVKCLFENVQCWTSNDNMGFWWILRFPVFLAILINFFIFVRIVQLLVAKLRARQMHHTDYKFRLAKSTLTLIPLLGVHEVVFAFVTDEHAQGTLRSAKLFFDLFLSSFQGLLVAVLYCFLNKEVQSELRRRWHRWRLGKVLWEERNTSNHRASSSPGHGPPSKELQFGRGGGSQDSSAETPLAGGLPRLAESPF
- test protocol: cell-based or functional assay
Listing of entries alongside the reported cAMP Rel EC50 (in the presence of 1% HSA).
measured attribute: cAMP Rel EC50 (in the presence of 1% HSA) (nM)

>  <binder>
YXQGTXTSDXXILLDXKAQXXFIEYLIEGGPSSGEPPPEGEEE (non-natural residues; C18 diacid-(γGlu)2 on Lys; C-terminal amide; synthetic construct; SITE 2: note = 2-Aminoisobutyric Acid; SITE 6: note = alpha-methyl-2-fluoro-L-phenylalanine; SITE 10: note = 3-(4-Pyridyl)-L-alanine; SITE 11: note = alpha-methyl-L-serine; SITE 16: note = L-ornithine; SITE 17: note = Lysine is chemically modified through conjugation of the epsi) [Example 606]

>  <readout number>
474

$$$$
>  <binder>
YXQGTFTSDFSKXLDKKAQXAFIEYLLAGGPSSGAPPPSGE (synthetic construct; SITE 2: note = 2-Aminoisobutyric Acid; SITE 13: note = alpha-methyl-leucine; SITE 17: note = Lysine is chemically modified through conjugation of the epsilon-amino group of the Lysine side chain with (2-[2-(2-Amino-ethoxy)-ethoxy]-acetyl)-(gamma-Glu)-CO-(CH2) 18-CO2H; SITE 20: n) [Example 11]

>  <readout number>
1700

$$$$
>  <binder>
YXQGTXTSDXSILLDKKAQXAFIEYLEEGGPSSGAPPPSGEGE (non-natural residues; Lys acylated (γGlu)2-C18 diacid; C-terminal amide; synthetic construct; SITE 2: note = 2-Aminoisobutyric Acid; SITE 6: note = alpha-methyl-2-fluoro-L-phenylalanine; SITE 10: note = 3-(4-Pyridyl)-L-alanine; SITE 17: note = Lysine is chemically modified through conjugation of the epsilon-amino group of the Lysine side chain with (gamma-Glu)2-CO-(CH2)1) [Example 621]

>  <readout number>
901

$$$$
>  <binder>
YXQGTXTSDXSILLDKKAQXAFIEYLEEGGPSSGAPPPSGSGE (non-natural residues; lysine acylated with (γ-Glu)2-C18 diacid; C-terminal amide; synthetic construct; SITE 2: note = 2-Aminoisobutyric Acid; SITE 6: note = alpha-methyl-2-fluoro-L-phenylalanine; SITE 10: note = 3-(4-Pyridyl)-L-alanine; SITE 17: note = Lysine is chemically modified through conjugation of the epsilon-amino group of the Lysine side chain with (gamma-Glu)2-CO-(CH2)1) [Example 618]

>  <readout number>
691

$$$$
>  <binder>
YXQGTXTSDXSILLDKKAQXAFIEYLEEGGPSSGAPPPSGGEE (non-natural residues; acylated Lys C18 diacid; C-term amide; synthetic construct; SITE 2: note = 2-Aminoisobutyric Acid; SITE 6: note = alpha-methyl-2-fluoro-L-phenylalanine; SITE 10: note = 3-(4-Pyridyl)-L-alanine; SITE 17: note = Lysine is chemically modified through conjugation of the epsilon-amino group of the Lysine side chain with (gamma-Glu)2-CO-(CH2)1) [Example 612]

>  <readout number>
640

$$$$
>  <binder>
YXQGTFTSDFSKXLDKKAQXAFIEYLLAGGPSSGAPPPGGE (synthetic construct; SITE 2: note = 2-Aminoisobutyric Acid; SITE 13: note = alpha-methyl-leucine; SITE 17: note = Lysine is chemically modified through conjugation of the epsilon-amino group of the Lysine side chain with (2-[2-(2-Amino-ethoxy)-ethoxy]-acetyl)-(gamma-Glu)-CO-(CH2) 18-CO2H; SITE 20: n) [Example 15]

>  <readout number>
1980

$$$$
